Listed here: compounds with reported IC50 for Dihydrofolate reductase (Rattus norvegicus, UniProt Q920D2).
State the answer as a number, implicitly in nM.

See these solved cases before continuing.
| compound | study_system | reading_unit | measured |
| --- | --- | --- | --- |
| Nc1nc(N)c2c(n1)CCC(CNc1ccc(Cl)cc1)C2 (stereo not drawn) | Dihydrofolate reductase (Rattus norvegicus, UniProt Q920D2) | nM | 128 |
| COc1cc(NCC2CCc3nc(N)nc(N)c3C2)cc(OC)c1OC (stereo not drawn) | Dihydrofolate reductase (Rattus norvegicus, UniProt Q920D2) | nM | 290 |
| CCOc1ccc(OCC)c(NCC2CCc3nc(N)nc(N)c3C2)c1 (stereo not drawn) | Dihydrofolate reductase (Rattus norvegicus, UniProt Q920D2) | nM | 1470 |
| Nc1nc(N)c2c(n1)CCC(CNc1c(Cl)cccc1Cl)C2 (stereo not drawn) | Dihydrofolate reductase (Rattus norvegicus, UniProt Q920D2) | nM | 109 |
| COc1cc(CN(C)CC2CCc3nc(N)nc(N)c3C2)cc(OC)c1OC (stereo not drawn) | Dihydrofolate reductase (Rattus norvegicus, UniProt Q920D2) | nM | 1630 |

stdin: Any idea what IC50 was measured for Nc1nc(N)c2c(n1)CCC(CNc1cc(Cl)ccc1Cl)C2 (stereo not drawn) ?
stdout: 240

stdin: Subsequent entry: Nc1nc(N)c2c(n1)CCC(CNc1cccc3ccccc13)C2 (stereo not drawn)
stdout: 139

stdin: Subsequent entry: Nc1nc(N)c2c(n1)CCC(CN1CCc3ccccc31)C2 (stereo not drawn)
stdout: 160

* * *

- study_system: Dihydrofolate reductase (Pneumocystis carinii, UniProt P16184)
- Sequence (P16184 whole entry): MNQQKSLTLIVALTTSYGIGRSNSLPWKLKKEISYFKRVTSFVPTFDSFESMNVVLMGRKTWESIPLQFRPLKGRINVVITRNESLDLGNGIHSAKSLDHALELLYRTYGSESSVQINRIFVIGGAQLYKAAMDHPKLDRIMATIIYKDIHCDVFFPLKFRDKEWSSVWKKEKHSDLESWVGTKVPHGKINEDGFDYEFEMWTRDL
pIC50: −log10 of the molar value.
Use TRUE when the recorded pIC50 is no lower than 6; use FALSE when it is lower.

Worked examples follow.
| molecule | cat |
| --- | --- |
| COc1cc(CN(C)CC2CCc3nc(N)nc(N)c3C2)cc(OC)c1OC (configuration not stated) | FALSE |
| Nc1nc(N)c2c(n1)CCC(CN1CCc3ccccc31)C2 (configuration not stated) | TRUE |
| Nc1nc(N)c2c(n1)CCC(CNc1cc(Cl)ccc1Cl)C2 (configuration not stated) | TRUE |
| CCOc1ccc(OCC)c(NCC2CCc3nc(N)nc(N)c3C2)c1 (configuration not stated) | FALSE |

stdin: API: above_or_equal(metric=pIC50, cutoff=6) for item Nc1nc(N)c2c(n1)CCC(CNc1cccc3ccccc13)C2 (configuration not stated)
stdout: TRUE

stdin: Now the same for Nc1nc(N)c2c(n1)CCC(CNc1c(Cl)cccc1Cl)C2 (configuration not stated)
stdout: TRUE

* * *

- study_system: Bifunctional dihydrofolate reductase-thymidylate synthase (Toxoplasma gondii, UniProt Q07422)
- Sequence (Q07422 whole entry): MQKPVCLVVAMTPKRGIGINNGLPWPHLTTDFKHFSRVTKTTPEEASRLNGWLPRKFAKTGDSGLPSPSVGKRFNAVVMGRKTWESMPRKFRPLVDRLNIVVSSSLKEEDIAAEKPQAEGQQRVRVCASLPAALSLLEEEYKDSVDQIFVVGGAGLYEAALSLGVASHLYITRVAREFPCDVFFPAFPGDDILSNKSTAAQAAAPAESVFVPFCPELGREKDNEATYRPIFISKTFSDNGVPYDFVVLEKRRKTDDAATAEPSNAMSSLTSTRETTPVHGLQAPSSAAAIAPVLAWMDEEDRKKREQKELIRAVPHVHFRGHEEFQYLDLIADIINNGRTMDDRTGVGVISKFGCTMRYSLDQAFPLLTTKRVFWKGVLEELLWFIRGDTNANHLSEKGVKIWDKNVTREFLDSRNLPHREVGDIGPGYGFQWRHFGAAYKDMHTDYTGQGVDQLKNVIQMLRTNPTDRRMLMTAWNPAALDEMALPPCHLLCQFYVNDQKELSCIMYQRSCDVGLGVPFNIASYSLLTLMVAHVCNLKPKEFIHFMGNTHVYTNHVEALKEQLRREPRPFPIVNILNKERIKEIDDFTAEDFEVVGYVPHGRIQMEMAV
- assay_comment: Inhibitory activity against purified DHFR (Dihydrofolate reductase) from Toxoplasma gondii.
# if measured IC50 < 100 nM: met  # else: not met

| molecule | cat |
| --- | --- |
| CCOc1ccc(OCC)c(NCC2CCc3nc(N)nc(N)c3C2)c1 (configuration not stated) | not met |
| COc1cc(NCC2CCc3nc(N)nc(N)c3C2)cc(OC)c1OC (configuration not stated) | met |
| Nc1nc(N)c2c(n1)CCC(CN1CCc3ccccc31)C2 (configuration not stated) | met |

stdin: Threshold test, IC50 < 100 nM: COc1cc(CN(C)CC2CCc3nc(N)nc(N)c3C2)cc(OC)c1OC (configuration not stated)
stdout: not met

stdin: And the next one, Nc1nc(N)c2c(n1)CCC(CNc1ccc(Cl)cc1)C2 (configuration not stated) ?
stdout: met

stdin: Quick one: Nc1nc(N)c2c(n1)CCC(CNc1c(Cl)cccc1Cl)C2 (configuration not stated)
stdout: met

* * *

- study_system: Dihydrofolate reductase (Rattus norvegicus)
- Sequence (Q920D2 whole entry): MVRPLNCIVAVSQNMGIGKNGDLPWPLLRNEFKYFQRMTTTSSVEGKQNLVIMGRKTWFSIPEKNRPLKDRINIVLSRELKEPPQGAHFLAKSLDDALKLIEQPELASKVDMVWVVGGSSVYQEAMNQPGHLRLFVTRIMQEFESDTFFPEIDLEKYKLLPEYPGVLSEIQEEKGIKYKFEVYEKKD
- assay_comment: Inhibitory activity against purified dihydrofolate reductase from rat
readout: IC50 (nM)
API: value field is a number in nM; no unit string.

Known results for molecules:
| molecule | reading_unit | measured |
| --- | --- | --- |
| CCOc1ccc(OCC)c(N(C)CC2CCc3nc(N)nc(N)c3C2)c1 (configuration not stated) | nM | 116 |
| COc1ccc(OC)c(NCC2CCc3nc(N)nc(N)c3C2)c1 (configuration not stated) | nM | 560 |

stdin: Quick one: IC50 of CN(CC1CCc2nc(N)nc(N)c2C1)c1ccc(Cl)cc1 (configuration not stated) ?
stdout: 67

stdin: // next record CN(CC1CCc2nc(N)nc(N)c2C1)c1cccc2ccccc12 (configuration not stated)
stdout: 47

* * *

pIC50 by entry:
- study_system: Dihydrofolate reductase (Pneumocystis carinii, UniProt P16184)
- assay_comment: Inhibitory activity against purified dihydrofolate reductase from Pneumocystis carinii.
Scale for pIC50: -log10 of concentration given in mol/L; no unit attached.

Solved cases below.
| compound | pIC50 |
| --- | --- |
| CN(CC1CCc2nc(N)nc(N)c2C1)c1ccc(Cl)cc1 (configuration not stated) | 6.77 |
| CN(CC1CCc2nc(N)nc(N)c2C1)c1ccc(Cl)c(Cl)c1 (configuration not stated) | 6.61 |
| Nc1nc(N)c2c(n1)CCC(CNc1cccc(Br)c1)C2 (configuration not stated) | 6.48 |

stdin: If you can, please state the reported pIC50 value of CCN(CC1CCc2nc(N)nc(N)c2C1)c1cc(OC)ccc1OC (configuration not stated) .
stdout: 6.94

stdin: Please give the result for COc1cc(N(C)CC2CCc3nc(N)nc(N)c3C2)cc(OC)c1OC (configuration not stated) too.
stdout: 7.02

stdin: Same read-out for COc1cc(CNCC2CCc3nc(N)nc(N)c3C2)cc(OC)c1OC (configuration not stated) ?
stdout: 4.73

stdin: Do the same for CCOc1ccc(OCC)c(N(C)CC2CCc3nc(N)nc(N)c3C2)c1 (configuration not stated) please
stdout: 6.50

stdin: Would you mind doing Nc1nc(N)c2c(n1)CCC(CNc1ccc(Cl)c(Cl)c1)C2 (configuration not stated) as well?
stdout: 5.17

* * *

- study_system: Bifunctional dihydrofolate reductase-thymidylate synthase (Toxoplasma gondii, UniProt Q07422)
- Sequence (Q07422 whole entry): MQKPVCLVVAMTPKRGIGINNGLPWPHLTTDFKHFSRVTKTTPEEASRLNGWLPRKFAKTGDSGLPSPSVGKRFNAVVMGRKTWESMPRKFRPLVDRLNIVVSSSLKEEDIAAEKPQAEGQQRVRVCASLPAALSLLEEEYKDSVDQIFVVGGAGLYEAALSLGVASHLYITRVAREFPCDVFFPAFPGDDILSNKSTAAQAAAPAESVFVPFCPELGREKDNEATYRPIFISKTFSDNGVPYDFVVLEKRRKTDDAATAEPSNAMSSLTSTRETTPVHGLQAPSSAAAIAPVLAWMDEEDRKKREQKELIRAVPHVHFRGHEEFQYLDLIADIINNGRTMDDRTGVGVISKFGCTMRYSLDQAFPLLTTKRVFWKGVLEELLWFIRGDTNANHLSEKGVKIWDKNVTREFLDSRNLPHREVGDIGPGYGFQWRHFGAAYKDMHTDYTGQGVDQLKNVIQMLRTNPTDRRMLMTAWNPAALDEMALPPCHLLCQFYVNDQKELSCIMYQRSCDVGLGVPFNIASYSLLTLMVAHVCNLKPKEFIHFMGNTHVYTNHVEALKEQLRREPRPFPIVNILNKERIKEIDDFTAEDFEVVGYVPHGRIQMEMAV
- assay_comment: Inhibitory activity against purified Dihydrofolate reductase from Toxoplasma gondii.
readout: pIC50
pIC50 is defined as minus the log10 of a concentration measured in mol/L.

| compound | measured |
| --- | --- |
| CN(CC1CCc2nc(N)nc(N)c2C1)c1ccc(Cl)cc1 (stereo unspecified) | 7.66 |
| COc1ccc(OC)c(NCC2CCc3nc(N)nc(N)c3C2)c1 (stereo unspecified) | 6.74 |
| CCOc1ccc(OCC)c(N(C)CC2CCc3nc(N)nc(N)c3C2)c1 (stereo unspecified) | 7.77 |
| Nc1nc(N)c2c(n1)CCC(CNc1ccc(Cl)c(Cl)c1)C2 (stereo unspecified) | 6.96 |
| C#CCN(CC1CCc2nc(N)nc(N)c2C1)c1cc(OC)c(OC)c(OC)c1 (stereo unspecified) | 7.92 |
| CN(CC1CCc2nc(N)nc(N)c2C1)c1ccc(Cl)c(Cl)c1 (stereo unspecified) | 7.68 |
| COc1ccc(OC)c(N(C)CC2CCc3nc(N)nc(N)c3C2)c1 (stereo unspecified) | 7.82 |
| CN(CC1CCc2nc(N)nc(N)c2C1)c1cccc2ccccc12 (stereo unspecified) | 7.64 |

stdin: Endpoint output: pIC50 of CCN(CC1CCc2nc(N)nc(N)c2C1)c1cc(OC)ccc1OC (stereo unspecified) . Value?
stdout: 7.77

stdin: // same read-out, input: Nc1nc(N)c2c(n1)CCC(CNc1cccc(Br)c1)C2 (stereo unspecified)
stdout: 7.52

stdin: Request: COc1cc(N(C)CC2CCc3nc(N)nc(N)c3C2)cc(OC)c1OC (stereo unspecified)
stdout: 8.15

All figures here come from ChEMBL document CHEMBL1128550.
